TARGET_SYSTEM: β-kinase domain of the human insulin receptor (CKD) (Homo sapiens)
Construct: The complete β-kinase domain of the human insulin receptor (CKD) was expressed in, and purified from, baculovirus; made in house
ASSAY_SUMMARY: 32P-cytoplasmic kinase domain (CKD) autophosphorylation assay
Assay type: biochemical
DETAILS: phosphorylation of CKD expressed as % of the vehicle level; 10 minutes at room temperature; compound concentration not given
Source text: ^32P-cytoplasmic Kinase Domain (CKD) Autophosphorylation Assay The insulin signaling pathway is activated through stimulation of the insulin receptor. […] The radioactivity incorporated into the CKD band was quantified by phosphorimaging of the gel, or scintillation counting of the excised bands. The potency of a compound for increasing phosphorylation was expressed as % of the vehicle level.
MEASUREMENT_NAME: % Activity vs. Control (%)

>  <COMPOUND>
NS(=O)(=O)c1ccc2ccc(NC(=O)Nc3ccc4ccc(S(N)(=O)=O)cc4c3)cc2c1 [Compound 89]

>  <TARGET_SYSTEM>
β-kinase domain of the human insulin receptor (CKD) (Homo sapiens)

>  <% Activity vs. Control, %>
104

$$$$
>  <COMPOUND>
O=C(Nc1ccc2c(O)cc(S(=O)(=O)Nc3ccc(C(=O)O)cc3)cc2c1)Nc1ccc2c(O)cc(S(=O)(=O)Nc3ccc(C(=O)O)cc3)cc2c1 [Compound 29]

>  <TARGET_SYSTEM>
β-kinase domain of the human insulin receptor (CKD) (Homo sapiens)

>  <% Activity vs. Control, %>
106

$$$$
>  <COMPOUND>
NS(=O)(=O)c1cccc(NS(=O)(=O)c2ccc3ccc(NC(=O)Nc4ccc5ccc(S(=O)(=O)Nc6cccc(S(N)(=O)=O)c6)cc5c4)cc3c2)c1 [Compound 23]

>  <TARGET_SYSTEM>
β-kinase domain of the human insulin receptor (CKD) (Homo sapiens)

>  <% Activity vs. Control, %>
80

$$$$

----------
TARGET_SYSTEM: β-kinase domain of the human insulin receptor (CKD) (Homo sapiens, UniProt P06213)
Construct: The complete β-kinase domain of the human insulin receptor (CKD) was expressed in, and purified from, baculovirus; made in house
Sequence (P06213 980-1382 limits assumed): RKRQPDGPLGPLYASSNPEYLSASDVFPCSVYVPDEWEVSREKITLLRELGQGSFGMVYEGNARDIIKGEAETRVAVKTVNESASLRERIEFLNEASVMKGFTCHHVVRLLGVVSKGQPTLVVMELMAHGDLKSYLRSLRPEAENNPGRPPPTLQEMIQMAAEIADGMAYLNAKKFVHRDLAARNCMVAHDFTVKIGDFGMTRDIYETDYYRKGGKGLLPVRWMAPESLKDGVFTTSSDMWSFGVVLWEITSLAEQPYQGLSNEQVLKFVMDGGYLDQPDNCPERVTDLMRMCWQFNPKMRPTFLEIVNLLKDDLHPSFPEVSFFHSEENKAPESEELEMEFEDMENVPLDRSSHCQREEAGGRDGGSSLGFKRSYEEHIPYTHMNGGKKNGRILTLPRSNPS
ASSAY_SUMMARY: 32P-cytoplasmic kinase domain (CKD) autophosphorylation assay
Type: biochemical
DETAILS: phosphorylation of CKD expressed as % of the vehicle level; 10 minutes at room temperature; compound concentration not given
Where a name gives a salt, the structure may show the parent alone.
MEASUREMENT_NAME: % Activity vs. Control (%)

# count of solved cases: 5
>  <MOLECULE>
COC(=O)c1cccc(NS(=O)(=O)c2cc(O)c3ccc(NC(=O)Nc4ccc5c(O)cc(S(=O)(=O)Nc6cccc(C(=O)OC)c6)cc5c4)cc3c2)c1

>  <% Activity vs. Control, %>
109

$$$$
>  <MOLECULE>
O=C(Nc1ccc2c(OCCCS(=O)(=O)O)cc(S(=O)(=O)O)cc2c1)Nc1ccc2c(OCCCS(=O)(=O)O)cc(S(=O)(=O)O)cc2c1

>  <% Activity vs. Control, %>
104

$$$$
>  <MOLECULE>
COC(=O)c1cccc(NS(=O)(=O)c2ccc3ccc(NC(=O)Nc4ccc5ccc(S(=O)(=O)Nc6cccc(C(=O)OC)c6)cc5c4)cc3c2)c1

>  <% Activity vs. Control, %>
93

$$$$
>  <MOLECULE>
O=C(O)COc1cc(S(=O)(=O)[O-])cc2cc(NC(=O)Nc3ccc4c(OCC(=O)O)cc(S(=O)(=O)[O-])cc4c3)ccc12.[Na+].[Na+]

>  <% Activity vs. Control, %>
99

$$$$
>  <MOLECULE>
COc1cc(S(=O)(=O)O)cc2cc(NC(=O)Nc3ccc4c(OC)cc(S(=O)(=O)O)cc4c3)ccc12

>  <% Activity vs. Control, %>
110

$$$$

a = O=C(Nc1ccc2ccc(S(=O)(=O)O)cc2c1)Nc1ccc2ccc(S(=O)(=O)Nc3cccc(S(=O)(=O)O)c3)cc2c1 [Compound 12, disodium salt]
b = O=C(Nc1ccc2ccc(S(=O)(=O)Nc3ccccc3)cc2c1)Nc1ccc2ccc(S(=O)(=O)Nc3ccccc3)cc2c1
# input Given a and given b , which shows the smaller recorded % Activity vs. Control? To answer, give the label that identifies your chosen option.
# output b
